Values compiled from PubChem BioAssay (NCI).

Documented TGI across a set of compounds
Test system: NCI-H226 lung
Test Name: NCI tumour cell line growth inhibition, 48 h

Illustrative cases are given below, each with its answer.
Query string: Dear colleague, I am looking for the recorded TGI of the following compound: O=C(CC(=O)N1N=C(c2ccccc2)C(N=Nc2ccc(Cl)cc2)C1=O)Nc1ccccc1Cl (stereo not given)
Result string: 62.6 µM

Query string: Follow-up entry: COc1cc(Cc2cc(OC)c(OC)c(OC)c2)ccc1O
Result string: > 100 µM

Query string: Follow-up entry: COC(=O)c1ccc2c(c1)n(Cc1ccc3ccccc3c1)c[n+]2Cc1ccc2ccccc2c1
Result string: 4.44 µM

Query string: Follow-up entry: CC(=O)OC[C@]12CC[C@H]3[C@@H](C[C@H]4O[C@]45CC=CC(=O)[C@]35C)[C@]1(O)CC[C@@]2(O)[C@@](C)(O)C1CC(C)=C(C)C(=O)O1 (stereo not given in full)
Result string: > 20 µM

Query string: Follow-up entry: O=C1CCC(c2ccccc2)C(O)(C(=O)O)C1 (stereo not given)
Result string: > 100 µM

Next:
Query string: Dear colleague, I am looking for the recorded TGI of the following compound: CCC1c2[nH]c3ccccc3c2C[C@H]2C(=O)NC(CCC(=O)OC(C)(C)C)C(=O)N12 (stereo not given in full)
Result string: > 100 µM

Query string: Follow-up entry: Nc1ccc(C(=O)Nn2c(-c3ccccc3)nc3ccccc3c2=O)cc1
Result string: > 100 µM

Query string: Follow-up entry: Cc1ccc(NC(=O)C2C(=O)N(c3ccc(C)c(C)c3)C(=O)/C2=N/O)cc1C (stereo not given)
Result string: > 100 µM

###

System: U251 CNS
Test Name: NCI tumour cell line growth inhibition, 48 h
Documented TGI across a set of compounds

Query string: API: value(readout=TGI, system=U251 CNS) for record CSc1nc(Cl)c2c(n1)Sc1nc3cc4c(cc3n1C2O)OCO4 (stereo unspecified)
Result string: > 50.1 µM

Next:
Query string: API: value(readout=TGI, system=U251 CNS) for record O=C(CC(=O)n1nc(-c2ccccc2)c(N=Nc2ccc(Cl)cc2)c1-c1ccccc1)Nc1cccc(Cl)c1
Result string: > 100 µM

Query string: Follow-up entry: COc1cc(Cc2cc(OC)c(OC)c(OC)c2)ccc1O
Result string: > 100 µM

Query string: Follow-up entry: N#CCCN(c1ccc(/C=C2\N=C(c3ccc(Cl)cc3)OC2=O)cc1)S(=O)(=O)c1ccccc1
Result string: > 100 µM

###

System: KM12 colon
Test Name: NCI tumour cell line growth inhibition, 48 h; in the data active = GI50 below about 0.43 µM; inactive = the rest
Permitted responses: active, inactive

Sample answers from the record:
Query string: State the result this test recorded for O=C(C[C@@H](C(=O)NCc1cccc(C(F)(F)F)c1)N1C(=O)[C@@H](N2C(=O)OC[C@@H]2c2ccccc2)[C@H]1/C=C/c1ccccc1)NC1CCN(Cc2ccccc2)CC1 .
Result string: inactive

Query string: Follow-up entry: Cc1cc(C)cc(Nc2cc(C)nc3nc(C(F)(F)F)nn23)c1
Result string: inactive

Query string: Follow-up entry: COc1ccc(/C(=N/Nc2ccc([N+](=O)[O-])cc2)Sc2cc(Cl)c(C)cc2S(N)(=O)=O)cc1
Result string: inactive

Query string: Follow-up entry: COc1cc2c3c(n(CCCCl)c(=O)c2cc1OC)-c1ccccc1C3=O
Result string: inactive

Query string: Follow-up entry: Cn1cc(C2=C(c3cn(CCCN=C(N)N)c4ccccc34)C(=O)NC2=O)c2ccccc21
Result string: inactive

Query string: Follow-up entry: CC(=O)[O][Hg][c]1c(C)c(C)c(C)c(C)c1C
Result string: inactive

Query string: Follow-up entry: COC(=O)c1ccc2c(c1)n(Cc1ccc3ccccc3c1)c[n+]2Cc1ccc2ccccc2c1
Result string: inactive

Query string: Follow-up entry: Cc1cc(C2CCCCC2)n(O)c(=O)c1
Result string: inactive

Now look at this one.
Query string: State the result this test recorded for COc1ccc(C2CC(=O)c3c(O)c(OC)c(OC)c(OC)c3O2)c(O)c1 (centres undefined) .
Result string: active

###

Tested on: SF-539 CNS
Test Name: NCI tumour cell line growth inhibition, 48 h
Documented TGI across a set of compounds

Illustrative cases are given below, each with its answer.
Query string: Dear colleague, I am looking for the recorded TGI of the following compound: CC(=O)O[C@@H]1C=C(C)[C@H](CBr)O[C@@]2(C)CC[C@H](Br)C(C)(C)[C@H]12
Result string: > 100 µM

Query string: Follow-up entry: COc1ccc(-n2c(SCc3cc(OC)c(OC)c(OC)c3)nc3ccc(C)cc3c2=O)cc1
Result string: > 100 µM

Query string: Follow-up entry: O=c1[nH]nc(-c2cccc(Br)c2)[nH]1
Result string: > 100 µM

Query string: Follow-up entry: NC(N)=N/N=C/c1c(Cl)nc2sccn12
Result string: 37.8 µM

Query string: Follow-up entry: Cc1[nH]c(N=Nc2ccccc2)nc1N=Nc1ccccc1
Result string: 6.93 µM

Next:
Query string: Dear colleague, I am looking for the recorded TGI of the following compound: Nc1ccc(C(=O)Nn2c(-c3ccccc3)nc3ccccc3c2=O)cc1
Result string: > 100 µM

Query string: Follow-up entry: CC(=O)OCC1OC(N2C(c3ccccc3)=CC(c3ccccc3)C(C#N)=C2S)C(OC(C)=O)C(OC(C)=O)C1OC(C)=O (configuration not stated)
Result string: 16.2 µM

Query string: Follow-up entry: COC(=O)C1=C(c2ccc3c(c2)OCO3)O[C@H](c2ccc3c(c2)OCO3)[C@H]1COC(C)=O
Result string: > 100 µM

Query string: Follow-up entry: N#[O+].O=S(=O)([O-])[O-].[NH2-].[NH2-].[NH2-].[NH2-].[NH2-].[Ru+5]
Result string: > 100 µM

Query string: Follow-up entry: C[N+](C)(N)CCC[N+](C)(C)N
Result string: > 100 µM

Query string: Follow-up entry: Nc1c(-c2ccc(Br)cc2)[n+]([O-])c2ccccc2[n+]1[O-]
Result string: > 100 µM

###

Test system: SNB-19 CNS
Test Name: NCI tumour cell line growth inhibition, 48 h
Readout: TGI

Query string: Dear colleague, I am looking for the recorded TGI of the following molecule: CCCN(CCCCC(NC(C)=O)C(=O)NCc1ccccc1)C(=O)N(CCCl)N=O (centres undefined)
Result string: > 100 µM

Query string: Follow-up entry: CC(=O)SCCC1c2[nH]c3ccccc3c2CCN1O (centres undefined)
Result string: > 100 µM

Query string: Follow-up entry: CCOC(=O)C(=C(SC)SC)c1nn2c(=O)cc(C)nc2s1
Result string: 86 µM

Query string: Follow-up entry: CC(=O)c1cccc2c1CC1(C2)Cc2ccc3c(c2C1=O)CCC3 (centres undefined)
Result string: > 100 µM

Query string: Follow-up entry: CC[C@@H]1/C=C/C=C/C[C@H](C)[C@@H](O)[C@](C)(O)C(=O)[C@H](C)[C@@H](O)[C@H](C)C(=O)[C@H](C)[C@@H](O)[C@H](C)/C=C/C(=O)O[C@H]2[C@@H](C)[C@@H](CC1)O[C@]1(O[C@H](CC(C)O)[C@H](C)CC1=O)[C@@H]2C (some centres undefined)
Result string: > 25 µM

Next:
Query string: Dear colleague, I am looking for the recorded TGI of the following molecule: c1ccc2c(c1)nc1n2CNCC1
Result string: > 100 µM

Query string: Follow-up entry: COC(=O)CSc1n[nH]c(-c2ccc(O)c([N+](=O)[O-])c2)n1
Result string: > 100 µM

Query string: Follow-up entry: COc1ccc(C2CC(=O)c3c(O)c(OC)c(OC)c(OC)c3O2)c(O)c1 (centres undefined)
Result string: > 100 µM

Query string: Follow-up entry: COc1ccc(-n2c(SCc3cc(OC)c(OC)c(OC)c3)nc3ccc(C)cc3c2=O)cc1
Result string: > 100 µM

###

Test system: NCI/ADR-RES ovarian
Test Name: NCI tumour cell line growth inhibition, 48 h
Readout: TGI

Illustrative cases are given below, each with its answer.
Query string: Dear colleague, I am looking for the recorded TGI of the following molecule: O=C(CNc1ccc(Cl)cc1)Nn1c(-c2ccccc2)nc2ccccc2c1=O
Result string: 19 µM

Query string: Follow-up entry: COc1ccc(-n2c(SCc3cc(OC)c(OC)c(OC)c3)nc3ccc(C)cc3c2=O)cc1
Result string: > 100 µM

Query string: Follow-up entry: COc1cc([N+](=O)[O-])ccc1NC(=O)C(F)(F)F
Result string: > 100 µM

Query string: Follow-up entry: CC(=O)OC[C@H]1[C@@H]2C(CC[C@]13CO3)OC(=O)CC(C)[C@]2(C)CCc1ccoc1 (stereo not given in full)
Result string: > 100 µM

The record that follows has no TGI shown yet.
Query string: Dear colleague, I am looking for the recorded TGI of the following molecule: COC(=O)C1(c2ccc(N(C)C)cc2OC)CCCN(C(=O)Oc2ccccc2[N+](=O)[O-])CCc2c1[nH]c1ccccc21 (stereo not given)
Result string: > 100 µM
